Target: purified recombinant human Aggrecanase-1 (rAgg1) (Homo sapiens, UniProt O75173)
Sequence (O75173 213-837): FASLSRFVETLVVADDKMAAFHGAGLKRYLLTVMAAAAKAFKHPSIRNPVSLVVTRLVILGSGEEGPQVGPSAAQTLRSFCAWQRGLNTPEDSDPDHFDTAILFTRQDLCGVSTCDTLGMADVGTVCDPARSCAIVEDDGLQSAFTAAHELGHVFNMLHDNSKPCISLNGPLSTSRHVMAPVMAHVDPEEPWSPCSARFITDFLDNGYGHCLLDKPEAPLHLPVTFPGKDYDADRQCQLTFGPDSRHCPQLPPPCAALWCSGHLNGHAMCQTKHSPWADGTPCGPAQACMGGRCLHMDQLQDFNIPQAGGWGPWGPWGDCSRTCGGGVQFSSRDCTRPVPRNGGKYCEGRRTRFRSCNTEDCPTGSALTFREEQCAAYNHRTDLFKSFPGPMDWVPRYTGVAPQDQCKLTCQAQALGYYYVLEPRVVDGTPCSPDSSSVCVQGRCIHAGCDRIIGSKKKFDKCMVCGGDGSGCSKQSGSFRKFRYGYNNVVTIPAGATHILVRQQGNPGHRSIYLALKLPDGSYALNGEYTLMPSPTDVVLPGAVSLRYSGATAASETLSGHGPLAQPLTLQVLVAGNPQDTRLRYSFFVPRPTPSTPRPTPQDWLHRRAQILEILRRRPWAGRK
Assay: In vitro fluorescence screen for Aggrecanase-1 inhibitors
Type: biochemical
Details: Table 3; read-out: Agg1 IC50

| structure.smiles | measurement.qualifier | IC50 (nM) |
| --- | --- | --- |
| CC(C)(Cc1ccccc1)NC(=O)[C@H](CCC(=O)O)NC(=O)c1ccc(-c2ccc3c(c2)OCC3)cc1 | = | 70 |
| Cc1cccc(CNC(=O)[C@H](CCC(=O)O)NC(=O)c2ccc(-c3ccc(CO)cc3)cc2)c1 | = | 3120 |
| CC(C)(Cc1ccc(Cl)cc1)NC(=O)[C@H](CCC(=O)O)NC(=O)c1ccc(-c2ccc(Br)s2)cc1 | < | 30 |
| CC(C)(Cc1ccc(Cl)cc1)NC(=O)[C@H](CCC(=O)O)NC(=O)c1ccc(-c2cccs2)s1 | < | 30 |
| CC(C)(Cc1ccc(F)cc1)NC(=O)[C@H](CCC(=O)O)NC(=O)c1ccc(-c2ccccc2)nc1 | = | 50 |
| CC(C)(Cc1ccc(Cl)cc1)NC(=O)[C@H](CCC(=O)O)NC(=O)c1ccc(-c2cccc(F)c2F)cc1 | = | 37 |
| CC(C)(Cc1ccc(Cl)s1)NC(=O)[C@H](CCC(=O)O)NC(=O)c1ccc(-c2ccc(F)c(Cl)c2)s1 | < | 30 |

---

Biological target: recombinant human catalytic domain of MMP-14 (Homo sapiens, UniProt P50281)
Construct: 177 amino acids corresponding to Tyr89-Gly265 of mature human enzyme
Assay: In vitro fluorescence assay of MMP-14 activity
Conditions: Table 1; unit inferred
pIC50: −log10 of the molar value.
Overview of recorded pIC50 for various molecules
endpoint.name: pIC50

| molecule | result.value |
| --- | --- |
| O=C(O)CC[C@H](NC(=O)c1ccc(-c2cccs2)cc1)C(=O)NCc1ccccc1 | ~5.70 |
| O=C(O)CC[C@H](NC(=O)c1ccc(-c2ccccc2)cc1)C(=O)NC1Cc2ccccc2C1 | < 3.70 |
| CCCNC(=O)[C@H](CCC(=O)O)NC(=O)c1ccc(-c2ccccc2)cc1 | < 3.70 |
| O=C(CC[C@H](NC(=O)c1ccc(-c2ccccc2)cc1)C(=O)NCc1cccc(OC(F)(F)F)c1)NO [Example 33D] | 7.13 |

---

Target: recombinant human MMP-2 (Homo sapiens, UniProt P08253)
Sequence (P08253 110-660): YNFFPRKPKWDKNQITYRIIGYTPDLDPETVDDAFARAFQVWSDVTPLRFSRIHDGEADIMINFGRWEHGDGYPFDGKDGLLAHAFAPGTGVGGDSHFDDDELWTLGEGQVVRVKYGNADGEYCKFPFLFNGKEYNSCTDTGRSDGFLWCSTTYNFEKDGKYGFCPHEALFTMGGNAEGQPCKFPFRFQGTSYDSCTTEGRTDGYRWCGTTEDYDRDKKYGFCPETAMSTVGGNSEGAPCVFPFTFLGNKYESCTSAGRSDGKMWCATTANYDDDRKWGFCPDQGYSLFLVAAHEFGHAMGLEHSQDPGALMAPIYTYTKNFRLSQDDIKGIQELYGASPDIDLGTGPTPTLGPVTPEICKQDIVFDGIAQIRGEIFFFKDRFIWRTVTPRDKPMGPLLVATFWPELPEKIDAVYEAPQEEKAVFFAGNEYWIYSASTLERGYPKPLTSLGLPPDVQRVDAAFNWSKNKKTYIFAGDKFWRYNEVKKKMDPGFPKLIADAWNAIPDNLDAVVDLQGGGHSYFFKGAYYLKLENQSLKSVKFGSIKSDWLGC
Test: In vitro fluorescence assay of MMP-2 activity
Settings: read-out: MMP-2; Table 1; unit inferred
pIC50: −log10 of the molar value.
endpoint.name: pIC50

| compound | endpoint.name | result.value |
| --- | --- | --- |
| COc1cc(CNC(=O)[C@H](CCC(=O)NO)NC(=O)c2ccc(-c3ccccc3)cc2)cc(OC)c1OC [Example 33A] | pIC50 | 8.33 |

---

Biological target: purified recombinant human Aggrecanase-1 (rAgg1) (Homo sapiens, UniProt O75173)
Test: In vitro fluorescence screen for Aggrecanase-1 inhibitors
Format: biochemical
Settings: Table 2; read-out: Agg1 IC50

| molecule | IC50 |
| --- | --- |
| Cc1cccc(CNC(=O)[C@H](CCC(=O)O)NC(=O)C2c3ccccc3-c3ccccc32)c1 | > 50000 nM |
| CC(C)(Cc1ccc(F)cc1)NC(=O)[C@H](CCC(=O)O)NC(=O)c1ccc(-c2ccc3c(c2)OCO3)cc1 | 38 nM |
| O=C(O)CC[C@H](NC(=O)c1ccc(/C=C/C(=O)c2ccccc2)cc1)C(=O)NCc1ccccc1 [Example 12I] | > 25000 nM |
| COc1cc(COc2ccc(-c3ccc(C(=O)N[C@@H](CCC(=O)O)C(=O)NC(C)(C)Cc4ccccc4)cc3)cc2)cc(OC)c1 [Example 19C] | 140 nM |
| O=C(O)CC[C@H](NC(=O)c1ccc2c(c1)C(=O)c1ccccc1-2)C(=O)NCc1ccccc1 | 813 nM |
| Cc1cccc(CNC(=O)[C@H](CCC(=O)O)NC(=O)c2ccc3c(c2)Cc2ccccc2-3)c1 | 107 nM |
| O=C(O)CC[C@H](NC(=O)c1ccc(-c2ccc3occc3c2)cc1)C(=O)NCC12CC3CC(CC(C3)C1)C2 [Example 17BB] | 3600 nM |
| C[C@H](NC(=O)[C@H](CCC(=O)O)NC(=O)c1ccc(-c2ccccc2)cc1)c1ccccc1 | 157 nM |
| O=C(O)CC[C@H](NC(=O)c1cccc2c1Cc1ccccc1-2)C(=O)NCCCCCCO | > 17000 nM |
| CC(C)c1ccc(-c2ccc(C(=O)N[C@@H](CCC(=O)O)C(=O)NC(C)(C)Cc3ccccc3)cc2)cc1 [Example 17T] | 3200 nM |
| C[C@H](NC(=O)[C@H](CCC(=O)O)NC(=O)c1ccc2c(c1)Cc1ccccc1-2)c1ccccc1 | 108 nM |
| O=C(O)CC[C@H](NC(=O)c1ccc(C#CC(O)(c2ccccc2)c2ccccc2)cc1)C(=O)NCc1ccccc1 [Example 12K] | ~25000 nM |
| COc1cc(CNC(=O)[C@H](CCC(=O)O)NC(=O)c2ccc(-c3ccc(OCc4cc(C(F)(F)F)cc(C(F)(F)F)c4)cc3)cc2)cc(OC)c1OC [Example 19E] | 49 nM |
| CC(C)(Cc1ccccc1)NC(=O)[C@H](CCC(=O)O)NC(=O)c1ccc(-c2ccc(COc3cc(C(C)(C)C)cc(C(C)(C)C)c3)cc2)cc1 [Example 15Z] | 1400 nM |

---

Target: purified recombinant human Aggrecanase-2 (Ag2t-Phe628-Strep) (Homo sapiens)
Construct: the form used is denoted as Ag2t-Phe628-Strep (MW=41,737)
Experiment: In vitro fluorescence screen for Aggrecanase-2 inhibitors
Format: biochemical
Details: Table 2; read-out: Agg 2 IC50

| compound | IC50 |
| --- | --- |
| COc1cccc(COc2ccc(-c3ccc(C(=O)N[C@@H](CCC(=O)O)C(=O)NCC45CC6CC(CC(C6)C4)C5)cc3)cc2)c1 [Example 19A] | 1020 nM |
| COc1cc(COc2ccc(-c3ccc(C(=O)N[C@@H](CCC(=O)O)C(=O)NCCCCCCO)cc3)cc2)cc(OC)c1 [Example 19G] | 146 nM |
| CC(C)(Cc1ccccc1)NC(=O)[C@H](CCC(=O)O)NC(=O)c1ccc(-c2ccc(COc3cccc(C(C)(C)C)c3)cc2)cc1 [Example 15Y] | 841 nM |

---

Overview of recorded IC50 for various compounds
Target: purified recombinant human Aggrecanase-2 (Ag2t-Phe628-Strep) (Homo sapiens, UniProt Q9UNA0)
Construct: the form used is denoted as Ag2t-Phe628-Strep (MW=41,737)
Sequence (Q9UNA0 262-628): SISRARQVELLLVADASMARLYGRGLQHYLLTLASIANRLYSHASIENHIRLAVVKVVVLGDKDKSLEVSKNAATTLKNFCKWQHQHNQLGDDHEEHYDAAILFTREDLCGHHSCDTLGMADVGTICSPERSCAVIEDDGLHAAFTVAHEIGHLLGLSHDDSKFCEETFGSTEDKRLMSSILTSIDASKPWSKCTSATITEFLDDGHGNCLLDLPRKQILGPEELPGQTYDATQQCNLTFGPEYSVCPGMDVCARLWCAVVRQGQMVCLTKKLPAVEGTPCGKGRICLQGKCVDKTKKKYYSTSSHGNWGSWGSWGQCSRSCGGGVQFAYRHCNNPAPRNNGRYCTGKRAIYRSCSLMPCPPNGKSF
Assay: In vitro fluorescence screen for Aggrecanase-2 inhibitors
Format: biochemical
Conditions: Table 2; read-out: Agg 2 IC50

| compound | measurement.qualifier | IC50 (µM) |
| --- | --- | --- |
| Cc1cccc(CNC(=O)[C@H](CCC(=O)O)NC(=O)C2c3ccccc3-c3ccccc32)c1 [Example 8EEEEE] | > | 200 |
| CCc1cccc(OCc2ccc(-c3ccc(C(=O)N[C@@H](CCC(=O)O)C(=O)NC(C)(C)Cc4ccccc4)cc3)cc2)c1 [Example 15AA] | = | 0.327 |
| CC(C)(Cc1ccc(F)cc1)NC(=O)[C@H](CCC(=O)O)NC(=O)c1ccc(-c2ccc3c(c2)OCO3)cc1 [Example 8HHHHHH] | = | 0.046 |

---

Overview of recorded IC50 for various compounds
Biological target: purified recombinant human Aggrecanase-1 (rAgg1) (Homo sapiens)
Assay: In vitro fluorescence screen for Aggrecanase-1 inhibitors
Assay type: biochemical
Settings: Table 2; read-out: Agg1 IC50
endpoint.name: IC50 (nM)

| compound | endpoint.name | measurement.qualifier | result.value |
| --- | --- | --- | --- |
| CC(C)(NC(=O)[C@H](CCC(=O)O)NC(=O)C1c2ccccc2-c2ccccc21)c1ccccc1 [Example 8NNNNN] | IC50 | = | 1200 |
| CN(CCc1ccccc1)C(=O)[C@H](CCC(=O)O)NC(=O)c1ccc2c(c1)Cc1ccccc1-2 [Example 8DDDDDD] | IC50 | = | 2400 |
| COc1cc(CNC(=O)[C@H](CCC(=O)O)NC(=O)c2ccc(-c3c(C)cc(C)cc3C)cc2)cc(OC)c1OC [Example 17KK] | IC50 | > | 25000 |
| COc1cc(CNC(=O)[C@H](CCC(=O)O)NC(=O)c2ccc(-c3cccc(O)c3)cc2)cc(OC)c1OC [Example 17RR] | IC50 | < | 30 |
| C[C@@H](CNC(=O)[C@H](CCC(=O)O)NC(=O)c1ccc(-c2ccccc2)cc1)c1ccccc1 [Example 8KKKKKK] | IC50 | = | 350 |
| O=C(O)CC[C@H](NC(=O)C1c2ccccc2-c2ccccc21)C(=O)NC12CC3CC(CC(C3)C1)C2 [Example 8BBBBB] | IC50 | > | 17000 |
| COc1cccc(OCc2ccc(-c3ccc(C(=O)N[C@@H](CCC(=O)O)C(=O)NC(C)(C)Cc4ccccc4)cc3)cc2)c1 [Example 15BB] | IC50 | = | 53 |
